Record: pIC50 reported on hMC4-R (Homo sapiens).
Remember the convention: pIC50 equals -log10 of concentration in molar.

[Q] Please report the measured pIC50 for `O=C(N[C@H](C=C1CCN(c2ccccc2CN2CCCC2=O)CC1)Cc1ccc(Cl)cc1)c1cc(=O)c2ccccc2o1`
[A] 5.51

[Q] Provide measured pIC50 value, entry: O=C(N[C@@H](C=C1CCC(c2ccccc2CN2CCCC2=O)CC1)Cc1ccc(Cl)cc1)[C@H]1Cc2ccccc2CN1 (some centres unmarked)
[A] 6.52

###

target: hMC4-R (Homo sapiens, UniProt P32245); construct: expressed in transfected cells; host or cells: HEK293 cells; experiment: Functional cellular cAMP assay in HEK293 cells (fluorescence polarization); format: cell-based; settings: cAMP produced compared to stimulation with NDP-alpha-MSH
Sequence (P32245 whole entry): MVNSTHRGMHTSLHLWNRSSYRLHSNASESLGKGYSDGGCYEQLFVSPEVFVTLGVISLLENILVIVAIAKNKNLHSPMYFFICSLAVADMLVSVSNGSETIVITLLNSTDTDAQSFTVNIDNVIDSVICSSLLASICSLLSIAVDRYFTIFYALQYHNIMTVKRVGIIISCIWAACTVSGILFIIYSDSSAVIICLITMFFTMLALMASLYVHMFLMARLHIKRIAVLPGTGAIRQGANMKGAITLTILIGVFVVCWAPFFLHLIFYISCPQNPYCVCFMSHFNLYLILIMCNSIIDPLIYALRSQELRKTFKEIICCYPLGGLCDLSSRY
Please go through the items and note down their % activation functional assay.
Expressed in %, but write only the number.

[Q] Report the value of % activation functional assay obtained on hMC4-R (Homo sapiens, UniProt P32245) for O=C(N[C@@H](C=C1CCC(c2ccccc2CN2CCCC2=O)CC1)Cc1ccc(Cl)cc1)[C@H]1Cc2ccccc2CN1 (stereo partly shown) .
[A] 97

[Q] Give % activation functional assay for O=C(N[C@H](C=C1CCC(c2ccccc2CN2CCCC2=O)CC1)Cc1ccc(Cl)cc1)[C@H]1Cc2ccccc2CN1 (stereo partly shown) tested on hMC4-R (Homo sapiens, UniProt P32245).
[A] 100

Values were extracted from patent US20070155783A1.
